These entries and their values trace back to PubChem BioAssay (NCI).

So I've got a bunch of compounds here, and I need their growth values.
- Test system: LOX IMVI melanoma
- test name: NCI-60 one-dose screen, 48 h (100 = growth as untreated, 0 = no growth, -100 = all killed)
- applied conditions: 10 µM
About 83,000 compounds went through this panel and 20% of them were active in at least one assay; those are over-represented in the sample as a whole.
# unit: % | format: bare number

Req: # growth lookup, item CC1CN(c2oc(-c3ccc([N+](=O)[O-])cc3)nc2C#N)CC(C)O1 (centres undefined)
Resp: 95.6

Req: # get_value(readout='growth', item= Cc1ccc([C@H]2C(C(=O)c3ccc(Cl)cc3)C3(N[C@@H]2c2ccccc2)C(=O)Nc2ccc(Cl)cc23)cc1 (some centres undefined) )
Resp: 39.8

Req: Endpoint output: growth of Cn1cc(-c2cc(N)n3nc(-c4cn(C)c5ccc(Cl)cc45)cc3n2)c2ccccc21 . Value?
Resp: 110

Req: # lookup: growth of Brc1ccc(N/N=C/c2c[nH]c3ccc(Br)cc23)nc1
Resp: -100

Req: Given the entry COc1ccc(-c2nc(SCC(C)C)nc(NCCc3c[nH]c4ccccc34)c2C#N)cc1 , report its measured growth.
Resp: 46.1

Req: Fill blank: measured growth of the compound CCN(CC)c1ccnc(CNCCSC(c2ccccc2)(c2ccccc2)c2ccc(OC)cc2)c1 is ____.
Resp: -99.2

Req: For the compound C=C1CCC2C3(C)COC(c4ccccc4)OC3CCC2(C)C1CC(NCc1ccccc1)C1=CCOC1=O (centres undefined) , what growth is on record?
Resp: 74.3

Req: Consider the compound COc1c(F)ccc(C(=O)Nc2ccc3nc(NC(=O)C4CCCN(S(=O)(=O)c5ccc(C(F)(F)F)cc5)C4)sc3c2)c1F (centres undefined) and give its measured growth.
Resp: 83.3

Req: Tell me the measured growth of O=C(c1ccccc1)c1ccc2nc(-c3cccc(Cl)c3)[nH]c2c1 , please.
Resp: 95.4

* * *

- Test system: SN12C renal
- test name: NCI-60 one-dose screen, 48 h
- applied conditions: 10 µM unless noted
Compounds without any hit were thinned out: in the full panel of roughly 83,000, 20% have a hit. Activity calls are given as the source filed them. The calls were made as follows: active = growth percent below 10; inactive = the rest.
Pick one and only one: active, inactive

Req: Name the outcome recorded for C=C1CCC2C3(C)COC(c4ccccc4)OC3CCC2(C)C1CC(NCc1ccccc1)C1=CCOC1=O (centres undefined) in the assay.
Resp: inactive

Req: # lookup: test call for C/C(=N\N=C1/C(=O)Nc2ccccc21)c1ccc2c(c1)Nc1ccccc1S2
Resp: inactive

Req: Hi, do you know how O=c1[nH]c2ccc(Cl)cc2cc1CSc1nccc(-c2ccc(Cl)cc2)n1 came out in this test?
Resp: inactive

Req: Recorded test outcome, item COc1ccc(-c2ccc(SCC(=O)NCCc3ccc(S(N)(=O)=O)cc3)nn2)cc1
Resp: inactive

Req: Called result for Cc1ccccc1[C@H]1C(C(=O)c2ccc(Cl)cc2)C2(N[C@@H]1c1ccccc1)C(=O)Nc1ccc(Br)cc12 (some centres undefined)
Resp: active

Req: Given COc1cccc(/C=C/c2nc3ccccc3c(=O)n2CC(=O)Nc2ccc(Cl)cc2)c1 , state the outcome it received in this test.
Resp: inactive

Req: Dear all, I need the recorded test outcome for Cc1cc2c(cc1Cl)C(=O)/C(=C/c1ccc(F)cc1)O2 , thank you.
Resp: inactive

Req: Tell me the recorded outcome of this test for COc1cc2oc(-c3cccc(C(=O)Nc4cccc([N+](=O)[O-])c4)c3)cc(=O)c2c(OC)c1OC .
Resp: inactive

Req: For this compound, state the assay outcome: COc1cc2c(c(OC)c1OC)C(=O)CC(c1cccc(NC(=O)c3cc(NC(=O)[C@@H](N)CO)ccc3C)c1)O2 (some centres undefined)
Resp: inactive

* * *

- Tested on: OVCAR-3 ovarian
- test name: NCI-60 one-dose screen, 48 h
- applied conditions: 10 µM unless noted
The panel holds about 83,000 compounds, 20% with a hit somewhere; the sample as a whole holds those more often. The source made the active and inactive calls. The calls were made as follows: active = growth percent below 10; inactive = the rest.
Output constraint: value belongs to True = active, False = inactive

Req: Short answer needed: outcome of this test for C=Cn1cc(C(=O)O)c(=O)c2cc(F)c(N3CCN(c4nccc(-c5nccs5)n4)CC3)cc21 ?
Resp: True

Req: Hi team, can someone confirm the assay call for O=C(/C=C/Nc1ccc2oc(=O)ccc2c1)c1cc2cc(Br)ccc2oc1=O ?
Resp: False

Req: Outcome logged for COc1ccc(-c2cc(C(=O)NCc3ccccc3)nn2-c2ccc(S(C)(=O)=O)cc2)cc1OC in this assay:
Resp: False

Req: In this assay, the call recorded for Cc1cc(=O)oc2cc(OCCCOc3ccc(/C=C/C(=O)Nc4ccccc4N)cc3)ccc12 was what?
Resp: True

Req: Please indicate how the test categorized CC1(C)CC[C@]2(C(=O)Nc3ccc(F)cc3)CC[C@]3(C)C(=CCC4[C@@]5(C)C[C@@H](O)[C@H](O)[C@@](C)(CO)C5CC[C@]43C)C2C1 (stereo partly specified) .
Resp: False

Req: Record request — test call for COc1ccc2[nH]c(O)c(N=NC(=O)Cn3c(-c4ccccc4)nc4cc(C)ccc43)c2c1
Resp: False

Req: Recorded test outcome, item C=C1CC[C@@H]2[C@]3(C)COC(c4cn[nH]c4-c4cccc(Br)c4)O[C@@H]3CC[C@@]2(C)[C@@H]1C/C=C1/C(=O)OCC1O (stereo partly specified)
Resp: True

Req: Name the outcome recorded for O=C(c1ccc(OCCN2CCOCC2)cc1)C1[C@H](c2ccc(Cl)cc2)[C@@H](c2ccccc2)NC12C(=O)Nc1ccc(Br)cc12 (stereo partly specified) in the assay.
Resp: False

Req: For C#CCOc1ccc(/C=N/Nc2nc(-c3ccc(Cl)cc3)cs2)cc1OC , what call appears in the results of this test?
Resp: False

Req: Check the results log: what was the call for CCOC(=O)C1=C(N)N(c2ccccc2)C2=C(C(=O)CC(C)(C)C2)C1c1ccccc1Cl (stereo unspecified) ?
Resp: False

Req: Write down the call the test reported for this compound. Item: CC1(C)CC[C@]2(C(=O)O)CC[C@]3(C)C(=CCC4[C@@]5(C)C[C@@H](O)[C@@H]6OC(c7cccc(Br)c7)OC[C@@]6(C)C5CC[C@]43C)C2C1 (stereo partly specified)
Resp: False

Req: Which outcome was assigned to C=C1CC[C@@H]2[C@]3(C)COC(c4ccco4)O[C@@H]3CC[C@@]2(C)[C@@H]1C/C=C1/C(=O)OCC1OC(C)=O (stereo partly specified) in this test?
Resp: True

Req: Write down the call the test reported for this compound. Item: CC12CC[C@@H]3[C@]4(C)COC(c5cn[nH]c5-c5ccc(Cl)cc5)O[C@@H]4CC[C@@]3(C)[C@@H]1CC(C1=CCOC1=O)O2 (stereo partly specified)
Resp: False

Req: What did this assay record as the result for COc1cc(-c2nc3cc(Cl)c(Cl)cc3[nH]2)ccc1OCc1nnc(-c2cccs2)o1 ?
Resp: False

Req: Short answer needed: outcome of this test for COc1ccc2c(c1)C(=N/N=C(\C)c1ccc(OC)c(S(N)(=O)=O)c1)C(=O)N2 ?
Resp: False

Req: Hello, I am checking results. What call was entered for N/N=C(\N)c1c(N)nc(=S)[nH]c1-c1ccc(Cl)cc1Cl ?
Resp: False

* * *

- Tested on: 786-0 renal
- test name: NCI-60 one-dose screen, 48 h (100 = growth as untreated, 0 = no growth, -100 = all killed)
- applied conditions: 10 µM unless noted
This is part of a sample that, as a whole, favours compounds with a hit. Of some 83,000 tested, about 20% had one in any assay.
Record form. Attribute: growth. Fill in for each entry.
Just the number please, in %, no unit attached.

Req: Look up growth for this molecule: COc1ccc2c(c1)c(-c1cc3nc(-c4cn(C)c5ncc(Br)cc45)cc(N)n3n1)cn2C
Resp: -94.8

Req: Name the recorded growth for COc1ccc(NC(=O)Nc2ccc(OCc3ccc(F)cc3)cc2)cc1 .
Resp: 29.3

Req: Which growth is reported for this molecule? CNC(=O)c1cccc(NC(=O)c2ccc3c(c2)nnn3/C(C#N)=C/c2ccccn2)c1
Resp: -95.9

Req: growth lookup needed for COc1ccc(/C=C/c2nc3ccccc3nc2Nc2cccc(C)c2)cc1 , thanks.
Resp: 97.4

Req: # query: growth of entry COC(=O)C[C@](O)(CCCC(C)(C)O)C(=O)O[C@H]1C(OC)=C[C@@]23CCCN2CCc2cc4c(cc2[C@@H]13)OCO4
Resp: -14.4

Req: Any idea what its growth is? The molecule is COc1ccc(-c2nnc3ccc(N/N=C/c4ccc(O)cc4)nn23)cc1
Resp: 22.9

Req: For the molecule Cn1cc(-c2cc(N)n3nc(-c4cn(C)c5ncc(Br)cc45)cc3n2)c2cc(Br)cnc21 , what growth is on record?
Resp: -40.8

Req: I am curious: what growth value has been reported for CCN(CC)c1ccnc(CNCCSC(c2ccccc2)(c2ccccc2)c2ccc(C)cc2)c1 ?
Resp: -93.1

Req: Sample COc1ccc2[nH]cc(-c3nc(N)nnc3-c3cn(C)c4ncccc34)c2c1 — what was its growth?
Resp: 64.2

Req: Give the measured growth of O=c1cc(-c2ccccc2)oc2cc(OCCCC[P+](c3ccccc3)(c3ccccc3)c3ccccc3)cc(O)c12 .
Resp: -69.5

Req: // returns reported growth for input CC(=O)OC[C@@]1(C)C2CC[C@]3(C)C(CC=C4C5CC(C)(C)CC[C@]5(C(=O)Nc5ccc(Br)cc5)CC[C@]43C)[C@@]2(C)C[C@@H](OC(C)=O)[C@@H]1OC(C)=O (stereo partly drawn)
Resp: 51.2

Req: Which value of growth has been reported for S=C(NCCc1ccccc1)Nc1ccc(OCc2nc3ccccc3[nH]2)cc1 in the records?
Resp: 105

Req: Fill blank: measured growth of the molecule COc1ccc(N2N=C(c3ccc4c(c3)OCO4)CC2c2cccc(NC(=O)CCCNS(=O)(=O)c3ccc(F)cc3)c2)cc1 (stereo not drawn) is ____.
Resp: 62.5

Req: Param item = O=C(N=Nc1c(O)[nH]c2ccc([N+](=O)[O-])cc12)c1ccc2nc(-c3ccccc3)[nH]c2c1 ; retrieve measured growth.
Resp: 91.4

Req: Suppose we examine the molecule N#Cc1c(NCc2ccccc2)n[nH]c1Nc1ccccc1 ; what growth value has been reported?
Resp: 63.3

Req: // returns reported growth for input CC1CCCCN1CCCNC(=O)N/C(N)=N/c1nc2ccccc2s1 (stereo not drawn)
Resp: 29.5

Req: Tell me the measured growth of COc1cc2oc(-c3cccc(NC(=O)[C@H](Cc4ccccc4)NC(=O)OC(C)(C)C)c3)cc(=O)c2c(OC)c1OC , please.
Resp: 43.8

Req: Return reported growth; argument: Cn1nc(C(F)(F)F)cc1-c1cc(Cl)c(COc2ccc(Cl)cc2)c(-c2ccc(Cl)c(C(F)(F)F)c2)c1O
Resp: -63.5
